- Target Or Test System: Tiam1 PDZ domain (wild-type) (Homo sapiens, UniProt Q13009)
- Sequence (Q13009 841-930 limits assumed): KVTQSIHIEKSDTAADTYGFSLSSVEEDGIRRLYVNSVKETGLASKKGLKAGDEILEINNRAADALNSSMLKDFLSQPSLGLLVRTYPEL
- Type: binding
- Settings: ΔΔGb = ΔGb(Core) − ΔGb(peptide)
Peptide text beside a SMILES is read from it. * marks the point of attachment. Dansyl = CN(C)c1cccc2c(S(=O)(=O)*)cccc12
Recorded ΔΔGb by entry
Kindly answer with a numeric value in kcal/mol, unit omitted.

CN(C)c1cccc2c(S(=O)(=O)N[C@@H](CCC(=O)O)C(=O)N[C@@H](CC(N)=O)C(=O)N[C@@H](CCC(N)=O)C(=O)N[C@@H](CCCCN)C(=O)N[C@@H](CCC(=O)O)C(=O)N[C@@H](Cc3ccc(O)cc3)C(=O)N[C@@H](Cc3ccccc3)C(=O)N[C@@H](Cc3ccccc3)C(=O)O)cccc12 [Caspr4] (Dansyl-ENQKEYFF-OH) : -1.09

# next compound below
Fill in: ΔΔGb of C[C@H](NC(=O)[C@H](Cc1ccc(O)cc1)NC(=O)[C@H](Cc1ccc(O)cc1)NC(=O)[C@H](CCC(=O)O)NC(=O)[C@H](CCC(=O)O)NC(=O)[C@H](CCC(N)=O)NC(=O)[C@H](CO)NC(=O)[C@H](CO)NS(=O)(=O)c1cccc2c(N(C)C)cccc12)C(=O)O [KP−4E–Sdc1] (Dansyl-SSQEEYYA-OH) is ___ -0.65

---

- Target Or Test System: Tiam1 PDZ domain (wild-type) (Homo sapiens, UniProt Q13009)
- Assay type: binding
- Settings: calculated from the dissociation constant; error by error propagation; 25 °C
Peptide text beside a SMILES is read from it. * marks the point of attachment. Dansyl = CN(C)c1cccc2c(S(=O)(=O)*)cccc12
Property Measured: ΔGb (free energy of binding) (kcal/mol)
Write the number in kcal/mol without appending the unit.

CN(C)c1cccc2c(S(=O)(=O)N[C@@H](CCC(=O)O)C(=O)N[C@@H](CC(N)=O)C(=O)N[C@@H](CCC(N)=O)C(=O)N[C@@H](CCCCN)C(=O)N[C@@H](CCC(=O)O)C(=O)N[C@@H](Cc3ccc(O)cc3)C(=O)N[C@@H](Cc3ccccc3)C(=O)N[C@@H](Cc3ccccc3)C(=O)O)cccc12 [Caspr4] (Dansyl-ENQKEYFF-OH) : -6.43
C[C@H](NC(=O)[C@H](Cc1ccc(O)cc1)NC(=O)[C@H](Cc1ccc(O)cc1)NC(=O)[C@H](CCC(=O)O)NC(=O)[C@H](CCC(=O)O)NC(=O)[C@H](CCC(N)=O)NC(=O)[C@H](CO)NC(=O)[C@H](CO)NS(=O)(=O)c1cccc2c(N(C)C)cccc12)C(=O)O [KP−4E–Sdc1] (Dansyl-SSQEEYYA-OH) : -5.99

For C[C@H](NC(=O)[C@H](Cc1ccc(O)cc1)NC(=O)[C@H](Cc1ccccc1)NC(=O)[C@H](CCC(=O)O)NC(=O)[C@H](CCCCN)NC(=O)[C@H](CCC(N)=O)NC(=O)[C@H](CO)NC(=O)[C@H](CO)NS(=O)(=O)c1cccc2c(N(C)C)cccc12)C(=O)O [YP−2F–Sdc1] (Dansyl-SSQKEFYA-OH) , what is its reported ΔGb (free energy of binding)? -5.42

---

Reported pKd by item:
- Target Or Test System: Tiam1 PDZ domain (wild-type) (Homo sapiens, UniProt Q13009)
Peptide text beside a SMILES is read from it. * marks the point of attachment. Dansyl = CN(C)c1cccc2c(S(=O)(=O)*)cccc12
Answer as the number alone; pKd is minus log10 of concentration in mol/L.

C[C@H](NC(=O)[C@H](Cc1ccc(O)cc1)NC(=O)[C@H](Cc1ccc(O)cc1)NC(=O)[C@H](CCC(=O)O)NC(=O)[C@H](CCC(=O)O)NC(=O)[C@H](CCC(N)=O)NC(=O)[C@H](CO)NC(=O)[C@H](CO)NS(=O)(=O)c1cccc2c(N(C)C)cccc12)C(=O)O [KP−4E–Sdc1] (Dansyl-SSQEEYYA-OH) : 4.40

May I ask what pKd has been recorded for C[C@H](NC(=O)[C@H](Cc1ccccc1)NC(=O)[C@H](Cc1ccc(O)cc1)NC(=O)[C@H](CCC(=O)O)NC(=O)[C@H](CCCCN)NC(=O)[C@H](CCC(N)=O)NC(=O)[C@H](CO)NC(=O)[C@H](CO)NS(=O)(=O)c1cccc2c(N(C)C)cccc12)C(=O)O [YP−1F–Caspr4] (Dansyl-SSQKEYFA-OH) ? 4.22

I am curious: what pKd value has been reported for C[C@H](NC(=O)[C@H](Cc1ccc(O)cc1)NC(=O)[C@H](Cc1ccccc1)NC(=O)[C@H](CCC(=O)O)NC(=O)[C@H](CCCCN)NC(=O)[C@H](CCC(N)=O)NC(=O)[C@H](CO)NC(=O)[C@H](CO)NS(=O)(=O)c1cccc2c(N(C)C)cccc12)C(=O)O [YP−2F–Sdc1] (Dansyl-SSQKEFYA-OH) ? 3.97

Tell me the measured pKd of CN(C)c1cccc2c(S(=O)(=O)N[C@@H](CCC(=O)O)C(=O)N[C@@H](CC(N)=O)C(=O)N[C@@H](CCC(N)=O)C(=O)N[C@@H](CCCCN)C(=O)N[C@@H](CCC(=O)O)C(=O)N[C@@H](Cc3ccc(O)cc3)C(=O)N[C@@H](Cc3ccccc3)C(=O)N[C@@H](Cc3ccccc3)C(=O)O)cccc12 [Caspr4] (Dansyl-ENQKEYFF-OH) , please. 4.72

// query pKd value for entry CN(C)c1cccc2c(S(=O)(=O)N[C@@H](CO)C(=O)N[C@@H](CO)C(=O)N[C@@H](CCC(N)=O)C(=O)N[C@@H](CCCCN)C(=O)N[C@@H](CCC(=O)O)C(=O)N[C@@H](Cc3ccc(O)cc3)C(=O)N[C@@H](Cc3ccc(O)cc3)C(=O)N[C@@H](Cc3ccccc3)C(=O)O)cccc12 [AP0F–Caspr4] (Dansyl-SSQKEYYF-OH) 4.05

---

- Target Or Test System: Tiam1 PDZ domain (wild-type) (Homo sapiens, UniProt Q13009)
- Format: binding
- Settings: calculated from the dissociation constant; error by error propagation; 25 °C
Peptide text beside a SMILES is read from it. * marks the point of attachment. Dansyl = CN(C)c1cccc2c(S(=O)(=O)*)cccc12
Property Measured: ΔGb (free energy of binding)
Could you write the number and then its unit?

C[C@H](NC(=O)[C@H](Cc1ccccc1)NC(=O)[C@H](Cc1ccc(O)cc1)NC(=O)[C@H](CCC(=O)O)NC(=O)[C@H](CCCCN)NC(=O)[C@H](CCC(N)=O)NC(=O)[C@H](CO)NC(=O)[C@H](CO)NS(=O)(=O)c1cccc2c(N(C)C)cccc12)C(=O)O [YP−1F–Caspr4] (Dansyl-SSQKEYFA-OH) : -5.75 ± 0.01 kcal/mol

Here is the next item to consider.
If you can, please state the reported ΔGb (free energy of binding) value of CN(C)c1cccc2c(S(=O)(=O)N[C@@H](CO)C(=O)N[C@@H](CO)C(=O)N[C@@H](CCC(N)=O)C(=O)N[C@@H](CCCCN)C(=O)N[C@@H](CCC(=O)O)C(=O)N[C@@H](Cc3ccc(O)cc3)C(=O)N[C@@H](Cc3ccc(O)cc3)C(=O)N[C@@H](Cc3ccccc3)C(=O)O)cccc12 [AP0F–Caspr4] (Dansyl-SSQKEYYF-OH) . -5.52 ± 0.06 kcal/mol

// provenance: paper PMC4137555
